src = PubChem BioAssay (NCI)

Tested on: OVCAR-8 ovarian
PROTOCOL: NCI-60 one-dose screen, 48 h
TEST CONTEXT: 10 µM
The panel holds about 83,000 compounds, 20% with a hit somewhere; the sample as a whole holds those more often. Activity calls are given as the source filed them. Rule for the calls: active = growth percent below 10; inactive = the rest.
Entry note: the call must match one of active, inactive

Previously resolved entries follow.
> print(dat)
                              smiles.record  classification
1  CC1=C2C(=C[C@@](C)(CO)[C@@H]2O)/C(=N\N)[C@](C)(O)C12CC2          active
2  Cc1ccc(/C=C/C(=O)c2ccc(S(=O)(=O)NCCNc3nc(Nc4ccc(F)cc4)nc(N(C)C)n3)cc2)cc1          active
3  Cc1cc(C(F)(F)F)ccc1C(=O)Nc1sc2c(c1C#N)CCC(=O)C2          active
4  COc1ccc(C(=O)/C=C/c2cc(F)cc(C(F)(F)F)c2)cc1S(N)(=O)=O          active

Exercise: Test call for this compound, please: Cc1nc2c(cnn2-c2ccccc2)c(=O)n1-c1ccc(NC(=O)c2ccc(F)cc2)cc1
Solution: inactive

====

System: LOX IMVI melanoma
PROTOCOL: NCI-60 one-dose screen, 48 h
TEST CONTEXT: 10 µM
Procedure: Growth inhibition of the LOX IMVI human tumor cell line is measured as a screen for anti-cancer activity. Cells are grown in 96 well plates and exposed to the test compound for 48 hours. Compounds are tested at a single concentration, which is 10^-5 M for most compounds. The reported endpoint is percent growth (GI% or GIPRCNT), where numbers from 0 - 100% represent growth inhibition, and numbers from -100% - 0 represent cell death. For example, a value of 40 represents 60% growth inhibition. […]
This is part of a sample that, as a whole, favours compounds with a hit. Of some 83,000 tested, about 20% had one in any assay. Activity calls are given as the source filed them. The calls were made as follows: active = growth percent below 10; inactive = the rest.
Entry note: the call must match one of active, inactive

Exercise: Test call for this molecule, please: C/C(=C\CC/C=C(\C)CC/C=C(\C)CC[C@@H](O)C(C)(C)O)CC/C=C(\C)CC[C@@H](O)C(C)(C)O
Solution: inactive

Exercise: Test call for this molecule, please: Cc1ccc(-c2ccc(SCC(=O)Nc3ccc(Cl)c(C(F)(F)F)c3)nn2)cc1
Solution: inactive

Exercise: Test call for this molecule, please: COC(=O)c1c(C(=O)OC)c2n(c1C)[C@@H]([C@@H](C)[C@H]1CC[C@H]3[C@@H]4CCC5=CC(=O)CC[C@]5(C)[C@H]4CC[C@]13C)SC2
Solution: inactive

Exercise: Test call for this molecule, please: CC(=O)Nc1ccc(-c2cn(-c3cccc(C(=O)Nc4cc(C(F)(F)F)cc(C(F)(F)F)c4)c3)nn2)cn1
Solution: active

Exercise: Test call for this molecule, please: O=C1Nc2ccc(Cl)cc2/C1=C/c1ccc(OCc2ccccn2)cc1
Solution: inactive

====

System: NCI-H522 lung
PROTOCOL: NCI-60 one-dose screen, 48 h (100 = growth as untreated, 0 = no growth, -100 = all killed)
TEST CONTEXT: 10 µM
Compounds without any hit were thinned out: in the full panel of roughly 83,000, 20% have a hit.
Here, each record is paired with measured growth data.
Quick note: give the figure in %, leave out the unit.

Use the examples below as a reference point.
> print(dat)
                                   compound  reported.value
1  CC(=O)Nc1ccc(-c2cn(-c3cccc(C(=O)Nc4cc(C(F)(F)F)cc(C(F)(F)F)c4)c3)nn2)cn1           -11.2
2        Nc1nc(Nc2ccccc2)nn1Cc1c(Cl)cccc1Cl            21.1
3  COc1ccc(CN2[C@@H](C(=O)NCc3ccc(C(=O)NO)cc3)Cc3c([nH]c4ccccc34)[C@@H]2C2CC2)cc1             -17

Exercise: What does the data say about its growth? Entry: CCN1CCN(c2ccc(NC(=O)Nc3ccc(-c4cc(C(=O)NC(C)C)c5ncccc5n4)cc3)cc2C(F)(F)F)CC1
Solution: -86.3

Exercise: What does the data say about its growth? Entry: COc1cc(C2CC(c3ccc(C)cc3)=Nc3c(N)nc(N)nc3N2)ccc1Oc1nc(Nc2ccc(F)cc2)nc(N(C)C)n1 (configuration not stated)
Solution: 87.3

Exercise: What does the data say about its growth? Entry: COc1ccc(-c2cc(-c3cc(C(=O)c4ccc(Br)cc4)n4ccc(C)cc34)nc(N)c2C#N)cc1
Solution: 89.9

Exercise: What does the data say about its growth? Entry: CCCCCCCCCCCCCCCCCCCC(=O)NCCc1c[nH]c2ccc(OC(=O)NOCCOCCOCCOCCOCCOCCOCCOCCOCCOCCOCCOCCOCCOCCOCCOCCOCCOCCOCCOCCOCCOCCOC)cc12
Solution: -83.4

Exercise: What does the data say about its growth? Entry: COc1cccc(/C=N/NC(=O)c2ccc3nc(-c4ccc(Cl)cc4)[nH]c3c2)c1O
Solution: -83

====

System: CAKI-1 renal
PROTOCOL: NCI-60 one-dose screen, 48 h
TEST CONTEXT: 10 µM
This is part of a sample that, as a whole, favours compounds with a hit. Of some 83,000 tested, about 20% had one in any assay. Activity calls are given as the source filed them. Rule for the calls: active = growth percent below 10; inactive = the rest.
Entry note: the call must match one of True = active, False = inactive

Previously resolved entries follow.
> print(dat)
                              smiles.record  classification
1  N#Cc1c(NC(=O)c2cccc(C(F)(F)F)c2)sc2c1CCC(O)=C2           False
2  Cn1cc(-c2cc(N)n3nc(-c4c[nH]c5ccc(Br)cc45)cc3n2)c2cc(Br)cnc21            True
3  CCCSc1nc(NC2CC2)c(C#N)c(-c2ccc(OC)cc2)n1           False
4  C=C1CC[C@H](C(=C)C)[C@H]2C=C(C)C(=O)C3=C(C(=O)[C@@](C)(O)C3)[C@H]12            True

Exercise: Test call for this compound, please: Cc1cc(=O)oc2cc(OCCCCOc3ccc(/C=C/C(=O)Nc4ccc(F)c(Cl)c4)cc3)ccc12
Solution: False

====

Test system: COLO 205 colon
PROTOCOL: NCI-60 one-dose screen, 48 h
TEST CONTEXT: 10 µM
Description: Cells are grown in 96 well plates and exposed to the test compound for 48 hours. Compounds are tested at a single concentration, which is 10^-5 M for most compounds. The reported endpoint is percent growth (GI% or GIPRCNT), where numbers from 0 - 100% represent growth inhibition, and numbers from -100% - 0 represent cell death. For example, a value of 40 represents 60% growth inhibition. A value of 0 means no net growth occurred over the course of the experiment. […]
The panel holds about 83,000 compounds, 20% with a hit somewhere; the sample as a whole holds those more often. The source made the active and inactive calls. The calls were made as follows: active = growth percent below 10; inactive = the rest.
Entry note: the call must match one of true (active), false (inactive)

Previously resolved entries follow.
> print(dat)
                                   compound  classification
1  CCOC(=O)C1NN(c2ccc(S(N)(=O)=O)cc2)c2nc3nc(-c4cccs4)cc(-c4cccs4)c3c(=O)n21 (stereo unspecified)           false
2  COc1ccc(-c2nc(-c3ccccc3)c(-c3ccccc3)n2-c2ccc(S(=O)(=O)Nc3ncccn3)cc2)cc1OC           false
3  COc1cccc2nc(Nc3ccc(F)c(NC(=O)c4ccc(CN5CCN(C)CC5)c(C(F)(F)F)c4)c3)ccc12            true
4  Cc1ccc2nc(COc3ccc(C(=O)NNC(=S)NC(=O)c4ccccc4)cc3)[nH]c2c1           false
5  Cc1ccc(/C=C/C(=O)c2ccc(S(=O)(=O)NCCNc3nc(Nc4ccc(F)cc4)nc(N(C)C)n3)cc2)cc1           false

Exercise: Test call for this compound, please: Cc1ccc(C(=O)NCCCNc2nc(Nc3ccc(N4CCN(C)CC4)cc3)nc3ccsc23)cc1
Solution: false

Exercise: Test call for this compound, please: CC(=O)Nc1ccc(-n2cnc3cc(-c4ccc(O)cc4)ccc32)cc1C
Solution: false

====

Tested on: EKVX NSCLC
PROTOCOL: NCI-60 one-dose screen, 48 h
TEST CONTEXT: 10 µM
The panel holds about 83,000 compounds, 20% with a hit somewhere; the sample as a whole holds those more often. The source made the active and inactive calls. Rule for the calls: active = growth percent below 10; inactive = the rest.
Entry note: the call must match one of label 1 = active, label 0 = inactive

Previously resolved entries follow.
> print(dat)
                                   compound  classification
1        O=C(CNc1nc(-c2ccccc2)cs1)Nc1ccccc1         label 1
2  O/N=C(\CSc1nnc(-c2c[nH]c3ccccc23)n1-c1ccccc1)c1ccc(Cl)cc1         label 1
3  COc1ccc(OC)c(-c2cc(-c3c[nH]c4ccccc34)nc(N)c2C#N)c1         label 0
4  O=C(Nc1ccc(F)c(Cl)c1)c1cc(-c2ccc(F)cc2F)ccc1O         label 1
5  COc1ccc(-c2cc(C(=O)N=Nc3c(O)[nH]c4ccccc34)c3ccccc3n2)cc1         label 1

Exercise: Test call for this compound, please: Nc1cc(-c2cccc(C(=O)NCc3ccc4c(c3)OCO4)c2)ccn1
Solution: label 0

Exercise: Test call for this compound, please: COc1cc(C2CC(c3ccccc3)=Nc3c(N)nc(N)nc3N2)ccc1Oc1nc(Nc2ccc(F)cc2)nc(N(C)C)n1 (configuration not stated)
Solution: label 0

Exercise: Test call for this compound, please: COc1ccc2c(c1)N=C(C(=O)O)/C2=C/c1sc(Nc2ccc(O)cc2)nc1O
Solution: label 0

Exercise: Test call for this compound, please: COc1ccc(-c2cc(C(=O)N=Nc3c(O)[nH]c4ccc(F)cc34)c3ccccc3n2)cc1
Solution: label 0
